biological target: hGLP-1R (Homo sapiens, UniProt P43220); experiment: Functional cAMP activation in the presence of 0.1% casein (no HSA); format: cell-based; settings: in the presence of 0.1% casein (no HSA); geometric mean; read-out: Relative cAMP EC50, hGLP-1R;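 also: intracellular cAMP rise after 30 min at 37 °C read by HTRF, normalized between buffer only (0%) and maximal control ligand (100%), four-parameter variable-slope fit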
Sequence (P43220 24-463): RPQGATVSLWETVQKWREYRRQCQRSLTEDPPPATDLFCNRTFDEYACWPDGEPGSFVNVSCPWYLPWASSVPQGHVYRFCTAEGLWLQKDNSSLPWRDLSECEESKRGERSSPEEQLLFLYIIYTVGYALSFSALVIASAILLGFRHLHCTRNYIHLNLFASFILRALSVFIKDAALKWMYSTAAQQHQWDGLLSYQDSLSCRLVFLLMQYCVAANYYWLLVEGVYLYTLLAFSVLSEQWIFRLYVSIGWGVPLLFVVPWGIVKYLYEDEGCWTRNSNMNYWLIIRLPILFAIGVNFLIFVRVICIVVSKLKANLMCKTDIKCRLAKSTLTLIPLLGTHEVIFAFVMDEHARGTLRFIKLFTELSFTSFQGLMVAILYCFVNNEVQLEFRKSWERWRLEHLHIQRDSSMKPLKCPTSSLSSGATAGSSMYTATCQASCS
Starred links: 1 amine or outer side, 2 acyl side, 3 side chain; linkers in the order of their positions; H or OH if unused. Non-standard residues stand in square brackets, D forms with d. Groups on a side chain read outwards from the residue. *: point of attachment. C18 diacid = O=C(O)CCCCCCCCCCCCCCCCC(=O)*; αMePhe(2-F) = C[C@](N)(Cc1ccccc1F)C(=O)O; γGlu = O=C(O)[C@H](CCC(=O)[*:2])N[*:1]; αMe4Pal = C[C@](N)(Cc1ccncc1)C(=O)O; αMeY = C[C@](N)(Cc1ccc(O)cc1)C(=O)O; 4Pal = N[C@@H](Cc1ccncc1)C(=O)O; αMeL = CC(C)C[C@](C)(N)C(=O)O; αMeS = C[C@](N)(CO)C(=O)O; Orn = NCCC[C@H](N)C(=O)O; AEEA = NCCOCCOCC(=O)O; Aib = CC(C)(N)C(=O)O
measured quantity: EC50

1) H-Y[Aib]QGTFTSDFS[Orn][αMeL]LDKK([AEEA-γGlu-C18 diacid])AQ[Aib]AFIEWLLEGGHSSGAPPPSGH-NH2 [Example 269]: 3.23 nM
2) H-Y[Aib]QGTFTSD[4Pal]SQ[αMeL]LDKK([γGlu-AEEA-γGlu-C18 diacid])AQ[αMe4Pal]AFIEYLIE[Aib]GPSSGAPPPSGS-NH2 [Example 861]: 2.62 nM
3) H-Y[Aib]QGT[αMePhe(2-F)]TSD[4Pal][αMeS]I[αMeL]LD[Orn]K([AEEA-γGlu-γGlu-C18 diacid])AQ[αMe4Pal]EFI[dE][αMeY]LIEGGPSSGEPPPSGSE-NH2 [Example 1179]: 0.652 nM

###

Known EC50 of a selection of substances
biological target: hGcgR (Homo sapiens); assay: Functional cAMP activation in the presence of 0.1% casein (no HSA); type: cell-based; conditions: read-out: Relative cAMP EC50, hGcgR
Starred links: 1 amine or outer side, 2 acyl side, 3 side chain; linkers in the order of their positions; H or OH if unused. Non-standard residues stand in square brackets, D forms with d. Groups on a side chain read outwards from the residue. No end group written: not given here. *: point of attachment. C18 diacid = O=C(O)CCCCCCCCCCCCCCCCC(=O)*; αMePhe(2-F) = C[C@](N)(Cc1ccccc1F)C(=O)O; γGlu = O=C(O)[C@H](CCC(=O)[*:2])N[*:1]; αMe4Pal = C[C@](N)(Cc1ccncc1)C(=O)O; αMeY = C[C@](N)(Cc1ccc(O)cc1)C(=O)O; 4Pal = N[C@@H](Cc1ccncc1)C(=O)O; αMeL = CC(C)C[C@](C)(N)C(=O)O; αMeS = C[C@](N)(CO)C(=O)O; Orn = NCCC[C@H](N)C(=O)O; AEEA = NCCOCCOCC(=O)O; Aib = CC(C)(N)C(=O)O
measured quantity: EC50 (nM)

1) H-Y[Aib]QGT[αMePhe(2-F)]TSD[4Pal]SI[αMeL]LD[Orn]K([AEEA-γGlu-C18 diacid])AQ[αMe4Pal][Orn]FI[dE][αMeY]LIEGGPSSGEPPPETE-NH2 [Example 678]: 2.28
2) Y[Aib]QGT[αMePhe(2-F)]TSD[4Pal][αMeS]ILLD[Orn]K([γGlu-γGlu-C18 diacid])AQ[Aib][Orn]FI[dE]YLIEGGPSSGEPPPEGEEE-NH2 [Example 606]: 5.01
3) H-Y[Aib]QGT[αMePhe(2-F)]TSD[4Pal][αMeS]I[αMeL]LD[Orn]K([AEEA-γGlu-C18 diacid])AQ[Aib][Orn]FI[dE][αMeY]LIEGGPSSGEPPPEGE-NH2 [Example 698]: 1.53
4) H-Y[Aib]QGT[αMePhe(2-F)]TSD[4Pal][αMeS]I[αMeL]LD[Orn]K([AEEA-γGlu-C18 diacid])AQ[Aib][Orn]FI[dE][αMeY]LIEGGPSSGEPPPEGTGE-NH2 [Example 697]: 1.71
5) H-Y[Aib]QGT[αMePhe(2-F)]TSD[4Pal][αMeS]I[αMeL]LD[Orn]K([AEEA-γGlu-C18 diacid])AQ[αMe4Pal]EFI[dE][αMeY]LIEGGPSSGAPPPEGGGE-NH2 [Example 759]: 1.29
6) H-Y[Aib]QGT[αMePhe(2-F)]TSD[4Pal][αMeS]I[αMeL]LD[Orn]K([γGlu-γGlu-C18 diacid])AQ[Aib][Orn]FI[dE][αMeY]LAEGGPSSGEPPPSGTE-NH2 [Example 544]: 2.71

###

Known pEC50 of a selection of substances
Biological target: hGIPR (Homo sapiens)
Sequence (P48546 22-466): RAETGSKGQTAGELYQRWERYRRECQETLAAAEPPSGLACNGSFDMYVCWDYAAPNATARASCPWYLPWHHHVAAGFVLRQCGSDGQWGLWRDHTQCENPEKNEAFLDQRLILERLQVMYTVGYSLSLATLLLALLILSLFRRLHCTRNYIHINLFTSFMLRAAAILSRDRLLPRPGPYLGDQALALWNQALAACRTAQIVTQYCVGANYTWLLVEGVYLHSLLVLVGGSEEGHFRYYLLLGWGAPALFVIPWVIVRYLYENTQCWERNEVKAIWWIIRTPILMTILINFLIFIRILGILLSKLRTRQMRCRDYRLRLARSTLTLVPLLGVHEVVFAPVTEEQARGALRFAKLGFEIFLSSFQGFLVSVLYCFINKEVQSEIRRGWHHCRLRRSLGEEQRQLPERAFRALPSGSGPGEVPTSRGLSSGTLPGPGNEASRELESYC
Test: Functional cAMP activity in the presence of 1% HSA
Assay type: cell-based
Conditions: read-out: cAMP Rel EC50, hGIPR
pEC50: −log10 of the molar value. Starred links: 1 amine or outer side, 2 acyl side, 3 side chain; linkers in the order of their positions; H or OH if unused. Non-standard residues stand in square brackets, D forms with d. Groups on a side chain read outwards from the residue. No end group written: not given here. *: point of attachment. C20 diacid = O=C(O)CCCCCCCCCCCCCCCCCCC(=O)*; C18 diacid = O=C(O)CCCCCCCCCCCCCCCCC(=O)*; αMePhe(2-F) = C[C@](N)(Cc1ccccc1F)C(=O)O; γGlu = O=C(O)[C@H](CCC(=O)[*:2])N[*:1]; αMe4Pal = C[C@](N)(Cc1ccncc1)C(=O)O; αMeY = C[C@](N)(Cc1ccc(O)cc1)C(=O)O; 4Pal = N[C@@H](Cc1ccncc1)C(=O)O; αMeL = CC(C)C[C@](C)(N)C(=O)O; αMeS = C[C@](N)(CO)C(=O)O; Orn = NCCC[C@H](N)C(=O)O; AEEA = NCCOCCOCC(=O)O; Aib = CC(C)(N)C(=O)O
measured quantity: pEC50

1) H-Y[Aib]QGT[αMePhe(2-F)]TSD[4Pal][αMeS]I[αMeL]LD[Orn]QAQ[αMe4Pal]EFI[dE][αMeY]LIEGGPSSGAPPPSGSE-NH2 [Example 1233]: 11.01
2) Y[Aib]QGTFTSD[4Pal]SK[αMeL]LDKK([AEEA-γGlu-C20 diacid])AQ[Aib]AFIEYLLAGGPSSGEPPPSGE-NH2 [Example 28]: 7.20
3) H-Y[Aib]QGT[αMePhe(2-F)]TSD[4Pal]SI[αMeL]LD[Orn]K([AEEA-γGlu-C18 diacid])AQ[αMe4Pal][Orn]FI[dE][αMeY]LIEGGPSSGDPPPEGE-NH2 [Example 727]: 8.96

###

target: hGcgR (Homo sapiens, UniProt P47871); experiment: Functional cAMP activation in the presence of 0.1% casein (no HSA); assay type: cell-based; settings: read-out: Relative cAMP EC50, hGcgR;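 also: intracellular cAMP rise after 30 min at 37 °C, read by HTRF against a cAMP standard curve, scaled from buffer only (0%) to maximal control ligand response (100%)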
Sequence (P47871 26-477): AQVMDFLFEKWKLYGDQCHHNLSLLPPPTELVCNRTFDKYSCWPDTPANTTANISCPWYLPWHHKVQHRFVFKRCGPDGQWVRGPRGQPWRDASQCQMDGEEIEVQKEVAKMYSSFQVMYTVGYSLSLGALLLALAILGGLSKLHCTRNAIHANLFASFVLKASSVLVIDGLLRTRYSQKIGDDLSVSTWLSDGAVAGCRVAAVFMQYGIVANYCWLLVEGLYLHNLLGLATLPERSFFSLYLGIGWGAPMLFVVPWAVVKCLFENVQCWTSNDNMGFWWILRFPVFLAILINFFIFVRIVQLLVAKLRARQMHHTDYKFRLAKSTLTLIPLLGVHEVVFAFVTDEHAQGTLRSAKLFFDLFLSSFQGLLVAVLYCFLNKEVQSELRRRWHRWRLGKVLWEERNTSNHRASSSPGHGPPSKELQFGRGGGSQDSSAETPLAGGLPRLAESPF
Starred links: 1 amine or outer side, 2 acyl side, 3 side chain; linkers in the order of their positions; H or OH if unused. Non-standard residues stand in square brackets, D forms with d. Groups on a side chain read outwards from the residue. No end group written: not given here. *: point of attachment. C18 diacid = O=C(O)CCCCCCCCCCCCCCCCC(=O)*; αMePhe(2-F) = C[C@](N)(Cc1ccccc1F)C(=O)O; γGlu = O=C(O)[C@H](CCC(=O)[*:2])N[*:1]; αMe4Pal = C[C@](N)(Cc1ccncc1)C(=O)O; αMeY = C[C@](N)(Cc1ccc(O)cc1)C(=O)O; 4Pal = N[C@@H](Cc1ccncc1)C(=O)O; αMeL = CC(C)C[C@](C)(N)C(=O)O; αMeS = C[C@](N)(CO)C(=O)O; Orn = NCCC[C@H](N)C(=O)O; AEEA = NCCOCCOCC(=O)O; Aib = CC(C)(N)C(=O)O
measured quantity: EC50 (nM)

1. Y[Aib]QGT[αMePhe(2-F)]TSD[4Pal][αMeS]ILLD[Orn]K([γGlu-γGlu-C18 diacid])AQ[Aib][Orn]FI[dE]YLIEGGPSSGEPPPEGGEE-NH2 [Example 605]: 5.49
2. H-Y[Aib]QGT[αMePhe(2-F)]TSD[4Pal][αMeS]I[αMeL]LD[Orn]K([AEEA-γGlu-C18 diacid])AQ[αMe4Pal]EFI[dE][αMeY]LVEGGPSSGEPPPSGE-NH2 [Example 750]: 2
3. H-Y[Aib]QGT[αMePhe(2-F)]TSD[4Pal][αMeS]ILLD[Orn]K([γGlu-γGlu-C18 diacid])AQ[Aib][Orn]FI[dE]YLIEGGPSSGEPPPEGTEEE-NH2 [Example 577]: 6.47
4. H-Y[Aib]QGT[αMePhe(2-F)]TSD[4Pal][αMeS]I[αMeL]LD[Orn]K([γGlu-γGlu-C18 diacid])AQ[Aib][Orn]FI[dE][αMeY]LAEGGPSSGEPPPSGGEE-NH2 [Example 590]: 4.34
5. H-Y[Aib]QGT[αMePhe(2-F)]TSD[4Pal]SI[αMeL]LD[Orn]K([AEEA-γGlu-C18 diacid])AQ[αMe4Pal][Orn]FI[dE][αMeY]LIEGGPSSGEPPPESEE-NH2 [Example 753]: 2.7
6. H-Y[Aib]QGT[αMePhe(2-F)]TSD[4Pal]SILLDKK([γGlu-γGlu-C18 diacid])AQ[Aib]AFIEYLTEGGPSSGAPPPSGTE-NH2 [Example 554]: 6.83
7. H-Y[Aib]QGT[αMePhe(2-F)]TSD[4Pal][αMeS]I[αMeL]LD[Orn]K([AEEA-γGlu-C18 diacid])AA[Aib]EFI[dE][αMeY]LIEGGPSSGEPPPSGGGE-NH2 [Example 746]: 1.62
8. H-Y[Aib]QGT[αMePhe(2-F)]TSD[4Pal][αMeS]I[αMeL]LD[Orn]K([γGlu-γGlu-C18 diacid])AQ[Aib]NFI[dE][αMeY]LIEGGPSSGEPEPSEG-NH2 [Example 473]: 2.72
9. H-Y[Aib]QGT[αMePhe(2-F)]TSD[4Pal]SILLDKK([γGlu-γGlu-C18 diacid])AQ[Aib]AFIEYLQEGGPSSGAPPPSGTE-NH2 [Example 553]: 4.53
10. H-Y[Aib]QGT[αMePhe(2-F)]TSD[4Pal][αMeS]I[αMeL]LD[Orn]K([Glu-γGlu-C18 diacid])AQ[Aib][Orn]FI[dE][αMeY]LSEGGPSSGEPPPSGTE-NH2 [Example 563]: 8.3
